Sourced from a melting point compilation (Tetko et al.; mined from patent text by program, amines drawn as free bases though some values may be those of a salt)

Form field: melting point (one value per entry).

The examples below pair each entry with its known result.
smiles.entry | melting point
CC(=O)Nc1ccc(OCCOc2ncc(Cl)cn2)cc1 | 160 °C
O=C(O)[C@H](Cc1ccccc1)NS(=O)(=O)c1ccccc1 | 150 to 152 °C

Input CCCCOCCCNC(=O)c1cnc(C(=O)NCC(=O)OCCCC)c(OC)c1 . Output melting point: 115 to 117 °C

----------
value.type: melting point

smiles.entry | result
Nc1ccc(Cl)c(Cl)c1CO | 134 to 135 °C
CC(=O)C(=CN(C)C)c1ccc(N2CCC(c3ccccc3)CC2)cc1 | 93 to 100 °C
Oc1ccc(N2CCN(Cc3c[nH]c4ncccc34)CC2)cc1 | 197 to 200 °C

Here is the next item to consider.
Input CCCCc1c(-c2cc(C)c(OC)c(C)c2)[nH]c2ccccc12 . Output melting point: 76.8 to 77.7 °C

----------
value.type: melting point

Input O=C(O)COc1ccc2c(-c3ccc(F)cc3)noc2c1Cl . Output melting point: 233 to 237 °C

----------
value.type: melting point

The examples below pair each entry with its known result.
compound | melting point
CN(C)C(=O)c1cc(=O)c2ccsc2s1 | 126 °C
CS(=O)(=O)c1ccc(SC2SCC(O)C(O)C2O)cc1 (configuration not stated) | 169 to 172 °C
CCCCOC(=O)COc1ccc(C(=O)Nc2cc(C)ccc2Sc2ccccc2-c2nnn[nH]2)cc1 | 146 to 148 °C
CN1CCC2(OCCO2)C2(CCCC2)C1=O | 84 to 85 °C
CCOP(=O)(Cc1ccc(C(=O)Nc2ccccc2C(=O)O)cc1)OCC | 171 to 172 °C
C=CCN1CCC(c2cc(-c3ccc(Cl)cc3)[nH]n2)CC1 | 165 to 167 °C
C[C@@H](CO)Oc1cc(Oc2ccc(C(=O)N3CCC3)cc2)cc(C(=O)Nc2ccn(C)n2)c1 | 131 °C
CCOC(=O)C(=O)N(CCN=[N+]=[N-])N=Cc1ccccc1 | 59 to 61 °C

Input CC1(C)CCC(C)(C)c2cc(-c3cc(Br)cc(C(=O)O)c3)ccc21 . Output melting point: 165 °C

Input CC(C)c1ccc(OC(C)(Cc2ccc(OCCNC(=O)c3ccc(OCC(F)(F)C(F)F)nc3)cc2)C(=O)O)cc1 (configuration not stated) . Output melting point: 173 to 175 °C

Input COc1ccc(-c2nc(C)c(Cl)[nH]2)cc1 . Output melting point: 182 to 186 °C

Input Fc1ccc2c(-c3ccncc3)noc2c1 . Output melting point: 138 to 146 °C

----------
value.type: melting point

Input CC(C)COC(=O)N[C@@H](CC(C)C)C(=O)N[C@@H](C(C)C)[C@@H](O)c1c(-c2ccccc2)c1=O . Output melting point: 145 to 146 °C

----------
value.type: melting point

The examples below pair each entry with its known result.
compound | result
N#Cc1cnc2cc(Br)ccc2c1Nc1ccc(Cc2ccccc2)cc1 | 195 to 197 °C
COc1cc(S(C)(=O)=O)ccc1-c1nc2cc3c(cc2[nH]1)NC(=O)C3(C)C | 235 to 237 °C
Nn1cnc2ccccc2c1=O | 209 to 210 °C
CSc1ccc(Cc2cccc(-c3c(O)c4ccc(Cl)cc4[nH]c3=O)c2)cc1 | 296 to 297 °C
Fc1ccc2[nH]c3c4ccccc4nc-3cc2c1 | > 246 °C

Input CC(=O)C(=[N+]=[N-])C(=O)CCc1ccccc1 . Output melting point: 30 to 32 °C

Input C=C(C)C(=O)CC/C(C)=C/CC/C(C)=C/C(N)=O . Output melting point: 42 to 44 °C

Input COc1ccc2c3c1OC1C(=O)CC(C)C4C(C2)N(C#N)CCC314 (configuration not stated) . Output melting point: 237 to 241 °C

Input O=C(O)CCCCCN1C(=O)c2ccc([N+](=O)[O-])cc2C1=O . Output melting point: 140 °C

----------
Form field: melting point (one value per entry).

The examples below pair each entry with its known result.
compound | result
Cc1cn(-c2ccc3nnc4c(C)nc(C5CCCCC5)n4c3c2)c(C2CCCCC2)n1 | 224 to 227 °C
CCOc1ccccc1-c1ncc(C(=O)O)c(=O)[nH]1 | 168 to 184 °C

Input Nc1cc(Oc2ccc3c(C(=O)Nc4cccc(C(F)(F)F)c4)cccc3c2)ncn1 . Output melting point: 243 to 244 °C

Input CCc1ccc2c(c1)C(c1ccccc1F)=NCC1CN=C(C)N21 (stereo not given) . Output melting point: 152 to 154 °C

Input CC(C)c1nc(CN2C(=O)C3(COc4cc5c(cc43)OCCO5)c3ccccc32)cs1 (stereo not given) . Output melting point: 60 to 63 °C

----------
value.type: melting point

Input COc1ccc(CCc2c(Cl)cncc2Cl)c2c1OC(C)(C)C2 . Output melting point: 128 to 133 °C

Input CC(=O)NCC1OC(n2cc(C=CBr)c(=O)[nH]c2=O)CC1Cl (configuration not stated) . Output melting point: 163 to 165 °C

Input Fc1cc(F)c(-c2c(Cl)nc(-n3ccnc3)nc2NCC(F)(F)F)c(F)c1 . Output melting point: 168 to 170 °C

Input CNC(=O)Oc1ccc2c(ccn2Cc2ccncc2)c1 . Output melting point: 170 °C

Input CC1(C)Oc2ccc(C#N)cc2[C@@H](NC(=O)Nc2ccc3c(c2)CN(C(=O)OCC(Cl)(Cl)Cl)C3)[C@@H]1O . Output melting point: 201 to 203 °C

Input CCOC(=O)C(=CNc1ccccc1[N+](=O)[O-])C(=O)OCC . Output melting point: 104 to 105 °C

Input Clc1ccc(C2Cc3cnc4[nH]ncc4c3-c3ccccc32)cc1Cl (configuration not stated) . Output melting point: 76 to 78 °C

----------
Form field: melting point (one value per entry).

compound | melting point
CCOC(=O)C(Cc1ccc(OCCN2COc3ccccc3C2=O)cc1)OCC (stereo not drawn) | 76 to 78 °C
O=C(O)c1cn(-c2ccc(F)cc2)c2c(F)c(N3Cc4cccc(F)c4C3)c(F)cc2c1=O | > 300 °C

Here is the next item to consider.
Input CSc1ccc(COC(=O)N2CCN(CC3(C)Cn4cc([N+](=O)[O-])nc4O3)CC2)cc1 (stereo not drawn) . Output melting point: 118 to 120 °C

----------
Form field: melting point (one value per entry).

The examples below pair each entry with its known result.
smiles.entry | value.type | result
O=S(=O)(c1cc(Cl)cc(Cl)c1)c1nnc(C(F)(F)F)s1 | melting point | 123 °C
Cc1cc(-c2ccccc2)n2nc(N3CCN(Cc4ccccc4)CC3)c(C#N)c2n1 | melting point | 160 to 164 °C
Cc1cc(CC(=O)c2ccccc2)on1 | melting point | 73 to 74 °C
O=C(NCc1cccnc1)c1cc(-n2cnn(Cc3ccc(F)cc3)c2=O)[nH]n1 | melting point | 235 to 236 °C
CC(C)(C)N(NC(=O)c1ccccc1)C(=O)c1cccnc1 | melting point | 60 to 63 °C

Input COC(=O)COc1ccc(NC(=O)NC(=O)c2ccc(C#N)cc2)cc1 . Output melting point: 214 to 217 °C

Input COc1ccc(Oc2nc(Nc3cccc(C(=O)O)c3)nc(Oc3ccccc3)n2)cc1 . Output melting point: 233 to 236 °C

Input Cc1cc(N)c(Br)c(C)c1C . Output melting point: 69 °C

----------
Form field: melting point (one value per entry).

The examples below pair each entry with its known result.
compound | melting point
Cc1cccc(-c2ccc3c(c2)c2c(n3Cc3ccccc3)COC(=O)C2=O)c1 | 225 to 226 °C
Cc1cccc(NC(=O)NC2N=C(CO)c3cccc(C)c3N(CC(=O)N3CCCCCCC3)C2=O)c1 (configuration not stated) | 214 to 216 °C
CCOC(=O)[C@H]1CC(OS(=O)(=O)c2ccc(C)cc2)CN1S(=O)(=O)c1ccc(C)cc1 (some centres not stated) | 93 °C
COC(=O)[C@H](Cc1ccc(OCCc2nc(-c3ccccc3)oc2C)cc1)Nc1ccccc1C(=O)c1ccccc1 | 55 to 60 °C
C=C1CC2(CC)C(=O)CC(O)C2C2CCC3=CC(=O)CCC3C12 (configuration not stated) | 228 °C

Input CC1(C)Oc2ccc(-c3c(NCCO)c(=O)c3=O)cc2[C@@H](N2Cc3ccccc3C2=O)[C@@H]1O (relative stereo) . Output melting point: 205 to 215 °C

Input CC(C)(C)c1cc(C(=O)c2ccccc2C(=O)O)cc(C(C)(C)C)c1O . Output melting point: 173 to 174 °C

Input O=C(Nc1cccc(Cl)c1)c1cc(Br)ccc1O . Output melting point: 231 to 232 °C

----------
value.type: melting point

The examples below pair each entry with its known result.
molecule | result
CCCCc1oc2ccccc2c1C(=O)Nc1ccc2c(Br)c(OCc3nn[nH]n3)ccc2c1 | 242 to 245 °C
O=C(O)c1cn(C2CC2)c2cc(-c3ccncc3)ccc2c1=O | 278 to 281 °C
CNC(=O)C(=NOC)c1ccccc1COc1ccc2c(c1)OCC2=O | 149 to 151 °C

Input CC(=O)OCC(=O)C12OCOC1CC1C3CCC4=CC(=O)CCC4(C)C3(F)C(O)CC12C (centres undefined) . Output melting point: 264 to 266 °C

Input O=C(NCCNCC(O)COc1ccc(O)cc1F)C1CCOCC1 (centres undefined) . Output melting point: 101 to 104 °C

Input CCCCCCCCCCCCCCCCCCNC(=O)NCCCCCCCCN . Output melting point: 120 to 145 °C

Input CCCC[C@H](NC(=O)[C@H](CC(C)C)NC(=O)c1ccccc1F)C(=O)CSCc1ccco1 . Output melting point: 102 to 103 °C

Input COc1ccc(S(=O)(=O)N(Cc2cccnc2)c2c(C(=O)O)cc(C)cc2-c2ccco2)cc1 . Output melting point: 82 °C

Input Nc1nc2ccccc2c2c1nc(-c1ccccc1)n2CCCCNC(=O)Nc1ccc(F)cc1 . Output melting point: 145 to 150 °C

Input CC(C)c1cccc(C(C)C)c1-n1nnn(C(C)C)c1=O . Output melting point: 60 to 62 °C
